Biological target: T1, alpha-s1 casein from Bos taurus
T1 chain: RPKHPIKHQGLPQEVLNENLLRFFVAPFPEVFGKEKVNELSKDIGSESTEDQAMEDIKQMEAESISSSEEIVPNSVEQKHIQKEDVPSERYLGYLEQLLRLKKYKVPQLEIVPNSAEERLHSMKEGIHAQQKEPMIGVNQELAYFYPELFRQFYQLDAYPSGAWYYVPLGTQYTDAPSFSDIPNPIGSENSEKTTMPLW
This section presents proteins with their documented (αSN1-1)/(αSN1), 24 hours, 11° C. values.
# respond with the number and nothing more

>  <protein>
camel chymosin variant #140 (F223M) (protein) GKVAREPLTSYLDSQYFGKIYIGTPPQEFTVVFDTGSSDLWVPSIYCKSNVCKNHHRFDPRKSSTFRNLGKPLSIHYGTGSMEGFLGYDTVTVSNIVDPNQTVGLSTEQPGEVFTYSEFDGILGLAYPSLASEYSVPVFDNMMDRHLVARDLFSVYMDRNGQGSMLTLGAIDPSYYTGSLHWVPVTLQQYWQFTVDSVTINGVAVACVGGCQAILDTGTSVLMGPSSDILKIQMAIGATENRYGEFDVNCGNLRSMPTVVFEINGRDYPLSPSAYTSKDQGFCTSGFQGDNNSELWILGDVFIREYYSVFDRANNRVGLAKAI

>  <(αSN1-1)/(αSN1), 24 hours, 11° C.>
2

$$$$

Here's the next entry for you.
stdin: Param item = camel chymosin variant #136 (F223C) (protein) GKVAREPLTSYLDSQYFGKIYIGTPPQEFTVVFDTGSSDLWVPSIYCKSNVCKNHHRFDPRKSSTFRNLGKPLSIHYGTGSMEGFLGYDTVTVSNIVDPNQTVGLSTEQPGEVFTYSEFDGILGLAYPSLASEYSVPVFDNMMDRHLVARDLFSVYMDRNGQGSMLTLGAIDPSYYTGSLHWVPVTLQQYWQFTVDSVTINGVAVACVGGCQAILDTGTSVLCGPSSDILKIQMAIGATENRYGEFDVNCGNLRSMPTVVFEINGRDYPLSPSAYTSKDQGFCTSGFQGDNNSELWILGDVFIREYYSVFDRANNRVGLAKAI ; retrieve measured (αSN1-1)/(αSN1), 24 hours, 11° C..
stdout: 1.9
